Hey, just so you know, these numbers are from the supplement of paper PMC9112550.

System: Escherichia coli TOP10
Experiment: shrunken log2 fold change of peptide-encoding DNA abundance (4.5 h post-induction vs induction); higher = less antimicrobial activity (less host growth inhibition)
Conditions: time post-induction: 4.5 h; library: site-saturation at positions 5, 18, 19, 20
Criterion: shrunken log2 fold change meeting or surpassing -0.08. Met: criterion met. Not met: criterion not met.

(Q) I'd appreciate it if you could say whether "RRIRTRPPRLPRPRPRPGDYPRP" has shrunken log2 fold change at least equal to -0.08.
(A) criterion met

(Q) I'd appreciate it if you could say whether "RRIRFRPPRLPRPRPRPNQQPRP" has shrunken log2 fold change at least equal to -0.08.
(A) criterion met

(Q) I'd appreciate it if you could say whether "RRIRNRPPRLPRPRPRPQNVPRP" has shrunken log2 fold change at least equal to -0.08.
(A) criterion met

(Q) I'd appreciate it if you could say whether "RRIRNRPPRLPRPRPRPYFNPRP" has shrunken log2 fold change at least equal to -0.08.
(A) criterion not met

(Q) I'd appreciate it if you could say whether "RRIRHRPPRLPRPRPRPTAFPRP" has shrunken log2 fold change at least equal to -0.08.
(A) criterion met

(Q) I'd appreciate it if you could say whether "RRIRIRPPRLPRPRPRPRMLPRP" has shrunken log2 fold change at least equal to -0.08.
(A) criterion not met

(Q) I'd appreciate it if you could say whether "RRIRIRPPRLPRPRPRPPCHPRP" has shrunken log2 fold change at least equal to -0.08.
(A) criterion not met

(Q) I'd appreciate it if you could say whether "RRIRERPPRLPRPRPRPRWRPRP" has shrunken log2 fold change at least equal to -0.08.
(A) criterion met

---

System: Escherichia coli TOP10
Assay: shrunken log2 fold change of peptide-encoding DNA abundance (4.5 h post-induction vs induction); higher = less antimicrobial activity (less host growth inhibition)
Settings: time post-induction: 4.5 h; library: site-saturation at positions 5, 18, 19, 20
measurement label: shrunken log2 fold change
Numbers only.

Take a look at these entries with their results.
1. RRIRSRPPRLPRPRPRPFADPRP    -0.0303
2. RRIRVRPPRLPRPRPRPSSCPRP    -0.184
3. RRIRLRPPRLPRPRPRPGMHPRP    0.299
4. RRIRFRPPRLPRPRPRPNNVPRP    -0.179
5. RRIRVRPPRLPRPRPRPCAGPRP    -0.106

Can you give me shrunken log2 fold change for all of these, one by one?
1. RRIRARPPRLPRPRPRPNLIPRP
2. RRIRARPPRLPRPRPRPWAGPRP
3. RRIRTRPPRLPRPRPRPSWFPRP
4. RRIRERPPRLPRPRPRPHPVPRP
5. RRIRWRPPRLPRPRPRPYSVPRP
6. RRIRLRPPRLPRPRPRPLKNPRP
7. RRIRMRPPRLPRPRPRPRHVPRP
8. RRIRNRPPRLPRPRPRPHRKPRP

(A)
1: 1.17; 2: 0.233; 3: -0.343; 4: -0.277; 5: -0.55; 6: -0.295; 7: 0.437; 8: 0.0299

Can you give me shrunken log2 fold change for all of these, one by one?
1. RRIRLRPPRLPRPRPRPFTRPRP
2. RRIRFRPPRLPRPRPRPDAGPRP

(A)
1: -0.0482; 2: 0.121

---

System: Escherichia coli TOP10
Assay: shrunken log2 fold change of peptide-encoding DNA abundance (4.5 h post-induction vs induction); higher = less antimicrobial activity (less host growth inhibition)
Conditions: time post-induction: 4.5 h; library: site-saturation at positions 5, 18, 19, 20
I'd be grateful if you could share measured shrunken log2 fold change for these entries.
Answers are plain numbers.

Take a look at these entries with their results.
1. RRIRHRPPRLPRPRPRPHNCPRP    -0.0289
2. RRIRDRPPRLPRPRPRPNQVPRP    -0.329
3. RRIRHRPPRLPRPRPRPQKEPRP    -0.03
4. RRIRQRPPRLPRPRPRPQEYPRP    0.0742
5. RRIRRRPPRLPRPRPRPYDFPRP    -0.296

Can you give me shrunken log2 fold change for all of these, one by one?
1. RRIRPRPPRLPRPRPRPNSHPRP
2. RRIRCRPPRLPRPRPRPEIWPRP
3. RRIRKRPPRLPRPRPRPDDWPRP
4. RRIRCRPPRLPRPRPRPGACPRP
5. RRIRMRPPRLPRPRPRPYPVPRP
6. RRIRGRPPRLPRPRPRPEKNPRP
7. RRIRSRPPRLPRPRPRPYYCPRP

(A)
[-0.521, 0.471, 1.73, 0.257, -0.237, 0.921, 2.2]

Can you give me shrunken log2 fold change for all of these, one by one?
1. RRIRGRPPRLPRPRPRPFCHPRP
2. RRIRFRPPRLPRPRPRPFYSPRP
3. RRIRQRPPRLPRPRPRPAYTPRP
4. RRIRFRPPRLPRPRPRPIWFPRP
5. RRIRIRPPRLPRPRPRPDFYPRP
6. RRIRFRPPRLPRPRPRPVANPRP
7. RRIRLRPPRLPRPRPRPWFFPRP

(A)
1. 0.418
2. -0.0734
3. 0.0569
4. -0.129
5. -0.554
6. -0.1
7. -0.155

---

System: Escherichia coli TOP10
Assay: shrunken log2 fold change of peptide-encoding DNA abundance (4.5 h post-induction vs induction); higher = less antimicrobial activity (less host growth inhibition)
Conditions: time post-induction: 4.5 h; library: site-saturation at positions 5, 18, 19, 20
measurement label: shrunken log2 fold change
Answers are plain numbers.

1) RRIRDRPPRLPRPRPRPETIPRP    0.17
2) RRIRQRPPRLPRPRPRPIRAPRP    0.0231
3) RRIRTRPPRLPRPRPRPSHLPRP    -0.411
4) RRIRSRPPRLPRPRPRPQIVPRP    -0.32
5) RRIRNRPPRLPRPRPRPMAAPRP    0.582
6) RRIRCRPPRLPRPRPRPHTTPRP    -0.716
7) RRIRKRPPRLPRPRPRPNHAPRP    -0.022

(Q) Provide one value: measured shrunken log2 fold change of "RRIRARPPRLPRPRPRPWEEPRP"
(A) 0.271

---

I'd be grateful if you could share measured shrunken log2 fold change for these entries.
Test system: Escherichia coli TOP10;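 note: peptides expressed intracellularly from a pBAD plasmid library in pooled LB shake-flask culture, induced with 0.3% L-arabinose, DNA abundance read by NGS, three biological replicates, DESeq2 with apeglm shrinkage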
Test: shrunken log2 fold change of peptide-encoding DNA abundance (4.5 h post-induction vs induction); higher = less antimicrobial activity (less host growth inhibition)
Conditions: time post-induction: 4.5 h; library: site-saturation at positions 5, 18, 19, 20
Answers are plain numbers.

1. RRIRVRPPRLPRPRPRPNHLPRP    -0.694
2. RRIRERPPRLPRPRPRPKAKPRP    -0.0257
3. RRIRYRPPRLPRPRPRPQPFPRP    0.00414

Can you give me shrunken log2 fold change for all of these, one by one?
1. RRIRTRPPRLPRPRPRPNYRPRP
2. RRIRQRPPRLPRPRPRPLKIPRP
3. RRIRIRPPRLPRPRPRPTSSPRP
4. RRIRKRPPRLPRPRPRPYLEPRP
5. RRIRYRPPRLPRPRPRPRGHPRP
6. RRIRKRPPRLPRPRPRPIVDPRP
7. RRIRQRPPRLPRPRPRPVLFPRP

(A)
1. -0.0168
2. -0.141
3. -0.25
4. 0.0252
5. -0.117
6. 0.234
7. 0.166

Can you give me shrunken log2 fold change for all of these, one by one?
1. RRIRWRPPRLPRPRPRPTKEPRP
2. RRIRIRPPRLPRPRPRPCMNPRP
3. RRIRQRPPRLPRPRPRPHPPPRP
4. RRIRHRPPRLPRPRPRPIWPPRP

(A)
0.177
-0.307
0.667
0.0213

Can you give me shrunken log2 fold change for all of these, one by one?
1. RRIRWRPPRLPRPRPRPIIFPRP
2. RRIRSRPPRLPRPRPRPECGPRP
3. RRIRCRPPRLPRPRPRPKHHPRP
4. RRIRQRPPRLPRPRPRPNTWPRP
5. RRIRFRPPRLPRPRPRPPERPRP
6. RRIRSRPPRLPRPRPRPARNPRP
7. RRIRTRPPRLPRPRPRPGMRPRP

(A)
1: -0.303; 2: 0.646; 3: -0.32; 4: -0.191; 5: 0.891; 6: 0.611; 7: 0.744

Can you give me shrunken log2 fold change for all of these, one by one?
1. RRIRKRPPRLPRPRPRPVYWPRP
2. RRIRYRPPRLPRPRPRPDCTPRP
3. RRIRRRPPRLPRPRPRPDSSPRP
4. RRIRARPPRLPRPRPRPFSVPRP

(A)
1: -0.0795; 2: -0.268; 3: -0.118; 4: -0.107
